- TEST SYSTEM: SARS-CoV-2 PL^pro (Severe acute respiratory syndrome coronavirus 2)
- Construct: The synthetic gene of SARS-CoV-2 PL^pro was cloned into the pET16b vector; made in house; host or cells: E. coli BL21(DE3)
- ASSAY PROTOCOL: biochemical
- CONDITION SET: 75 nM PL^pro, 10 μM z-Arg-Leu-Arg-Gly-Gly-AMC, pH 7.5; read-out: IC50
pIC50: −log10 of the molar value. *1 amine or outer side, *2 acyl side, *3 side chain or, on linkers, in order; H or OH if unused. Where a SMILES comes first, the peptide text is derived from it. Bridges are numbered along the chain shown (N, C = ends). Roman numbers before positions name the chains, in order. [ ]: non-standard residue; d: D form. Actinocin(9to1) = Cc1c2oc3c(C)ccc(C(=O)[*:1])c3nc-2c(C(=O)[*:2])c(N)c1=O; NMeV = CN[C@H](C(=O)O)C(C)C; Sar = CNCC(=O)O
METRIC NAME: pIC50

# COMPOUND, RESULT VALUE
data = [
    ("CCOc1cc2ncc(C#N)c(Nc3ccc(OCc4ccccn4)c(Cl)c3)c2cc1NC(=O)/C=C/CN(C)C [Neratinib]", 4.94),
    ("Cc1c2oc3c(C)ccc(C(=O)N[C@@H]4C(=O)N[C@H](C(C)C)C(=O)N5CCC[C@H]5C(=O)N(C)CC(=O)N(C)[C@@H](C(C)C)C(=O)O[C@@H]4C)c3nc-2c(C(=O)N[C@@H]2C(=O)N[C@H](C(C)C)C(=O)N3CCC[C@H]3C(=O)N(C)CC(=O)N(C)[C@@H](C(C)C)C(=O)O[C@@H]2C)c(N)c1=O [Dactinomycin] (I: T[dV]P[Sar][NMeV] / II: T[dV]P[Sar][NMeV]; ester I:1-I:C, II:1-II:C; linker I:N-II:N via Actinocin(9to1))", 4.83),
    ("CO[C@H]1C[C@@H]2CC[C@@H](C)[C@@](O)(O2)C(=O)C(=O)N2CCCC[C@H]2C(=O)O[C@H]([C@H](C)C[C@@H]2CC[C@@H](O)[C@H](OC)C2)CC(=O)[C@H](C)/C=C(\\C)[C@@H](O)[C@@H](OC)C(=O)[C@H](C)C[C@H](C)/C=C/C=C/C=C/1C [Rapamycin]", 4.51),
    ("CN(C)C/C=C/C(=O)Nc1cc2c(Nc3ccc(F)c(Cl)c3)ncnc2cc1O[C@H]1CCOC1 [Afatinib]", 4.34),
]

###

- TEST SYSTEM: human TMPRSS2 (Homo sapiens, UniProt O15393)
- Construct: the purified MBP-tagged TMPRSS2 (residues 256-492) activity; made in house; host or cells: E. coli BL21 (DE3)
- Sequence (O15393 256-492): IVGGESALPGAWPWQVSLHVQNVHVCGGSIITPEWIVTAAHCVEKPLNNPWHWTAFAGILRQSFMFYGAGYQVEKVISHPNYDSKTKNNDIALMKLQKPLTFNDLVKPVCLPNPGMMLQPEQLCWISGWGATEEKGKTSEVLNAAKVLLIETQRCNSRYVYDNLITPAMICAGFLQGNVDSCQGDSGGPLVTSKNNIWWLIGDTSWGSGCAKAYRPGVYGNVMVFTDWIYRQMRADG
- ASSAY PROTOCOL: Inhibition assay of human TMPRSS2 (fluorogenic peptide)
- Type: biochemical
pIC50: −log10 of the molar value.
Measured pIC50 values are reported for all entries that follow.
METRIC NAME: pIC50

# SMILES TEXT, METRIC NAME, RESULT VALUE
rows = [
    ("CC/C(=C(\\c1ccccc1)c1ccc(OCCN(C)C)cc1)c1ccccc1", "pIC50", 4.67),
    ("CN(C)C/C=C/C(=O)Nc1cc2c(Nc3ccc(F)c(Cl)c3)ncnc2cc1O[C@H]1CCOC1", "pIC50", 4.55),
]
